Ref: PubChem BioAssay (NCI)

test system: T-47D breast; assay: NCI tumour cell line growth inhibition, 48 h
readout_label: TGI

Summary for this compound, CNc1cc([N+](=O)[O-])ccc1C(=O)N1CCC[C@H]1CO : TGI is > 100 µM

Entry CN1CCN(c2cc3nc(-c4ccc(Cl)cc4)[nH]c3cc2F)CC1 , TGI reported as 65.7 µM

Entry under test: O=S1SC(=S)C2C=CC=NC21 (stereo not drawn) . Its TGI was 58.9 µM

Looking up CCCCN=NNc1cn(C2OC(CO)C(O)C2O)c(=O)[nH]c1=O (stereo not drawn) , I see its TGI listed as > 100 µM

Lab note: measured TGI of Cn1nnc2c(C(N)=S)ncn2c1=O was > 100 µM

According to the records, this compound O=C1C=C(c2ccccc2)OC1C1Sc2ccccc2NC1=O (stereo not drawn) displays TGI of > 100 µM

Recorded result, Cc1ccc(/C=N/NC(=O)c2ccccc2Oc2ccccc2)o1 , TGI: > 100 µM

In plain terms, C[C@@H](Nc1cc(F)cc(F)c1)c1cc(C(=O)N(C)C)cc2c(=O)cc(N3CCOCC3)oc12 has a documented TGI of 6.94 µM

* * *

Kindly state TGI for each of the entries shown.
system: A549 NSCLC; assay: NCI tumour cell line growth inhibition, 48 h

// TGI value for C/C(=C\COP(=O)(O)OP(=O)(O)O)CCCCCCOCc1ccccc1 : > 100 µM

Consider C=C1C(=O)O[C@H](c2ccoc2)C[C@@H]1[C@@]1(C)CCCC2(C)C(=O)OCC21 (stereo partly drawn) . Its measured TGI is > 100 µM

Measured TGI, Cc1ccc(N2C(=O)C3c4[nH]c5ccc(C)cc5c4C4CCC(C(C)(C)C)CC4C3C2=O)cc1 (stereo not drawn) : 32.8 µM

TGI recorded for this compound, C[N+](C)(C)CC(=O)N/N=C(\Cc1nc2ccc([N+](=O)[O-])cc2[nH]c1=O)C(=O)Nc1nc2ccc([N+](=O)[O-])cc2s1 , is > 100 µM

According to the records, this compound COc1ccc(Cn2cc(COc3cc(/C=C/C(=O)c4cc(OC)c(OC)c(OC)c4)ccc3OC)nn2)cc1 displays TGI of 47.5 µM

According to the records, this compound CCCCCCCCOC(=O)C12Oc3ccc(-c4ccc5c(c4O)C(O)=C4C(=O)CC(C)C(O)C4(C(=O)OCCCCCCCC)O5)c(O)c3C(O)=C1C(=O)CC(C)C2O (stereo not drawn) displays TGI of > 100 µM

The compound listed as COc1cc(-c2nn(-c3ccc(NC(=O)Nc4cc(C(F)(F)F)cc(C(F)(F)F)c4)cc3)cc2-c2ccncc2)ccc1Cl shows TGI equal to 13 µM

The compound listed as C=C1CN=C(Nc2ccc(Cl)cc2)S1 shows TGI equal to > 100 µM

* * *

test system: COLO 205 colon; assay: NCI tumour cell line growth inhibition, 48 h
Where a SMILES comes first, the peptide text is derived from it. [ ]: non-standard residue; d: D form. The star is where a group is joined. NMeF = CN[CH](Cc1ccccc1)C(=O)O; NMeV = CN[CH](C(=O)O)C(C)C; Boc = CC(C)(C)OC(=O)*; OBn = c1ccc(CO*)cc1
readout_label: TGI

Please fill in: TGI reported for Nc1nc(SCC(=O)c2ccccc2)c2[nH]cnc2n1 = > 100 µM

For Cn1ncc(C#N)c1-c1ccc2c(c1)CN([C@H](CN)Cc1cccc(F)c1)C2=O the molecule record lists TGI as 21 µM

Quick note, TGI for COC(=O)[C@H](Cc1cn(C)cn1)NC(=O)[C@H](CC(=O)OCc1ccccc1)NC(=O)Nc1cc(C(F)(F)F)cc(C(F)(F)F)c1 landed at 13.8 µM

Measured TGI of Cc1ccc(/C=N/NC(=O)c2ccccc2Oc2ccccc2)o1 : > 100 µM

# TGI of Cc1ccc(N)cc1[As]=[As]c1cc(N)ccc1C (centres undefined) = 2.77 µM

So, COc1ccc(-c2sc(Br)c3c2C(=O)C2OC(=O)NC32)cc1OC (centres undefined) ? Its TGI was > 100 µM

Measured TGI, CN(C)NC(=O)/C(=C/c1ccc(Cl)cc1)NC(=O)c1ccccc1 : > 100 µM

The recorded TGI for CC1(C)C(N2CCOCC2)CS1(=O)=O (centres undefined) is > 10 µM

Please fill in: TGI reported for CC(C)C(NC(=O)OC(C)(C)C)C(=O)N(C)C(Cc1ccccc1)C(=O)N(C)C(C(=O)OCc1ccccc1)C(C)C (stereo not drawn) (Boc-Val-[NMeF]-[NMeV]-OBn; configuration not given here) = > 100 µM
